Test system: PPC-1 prostate cancer cell line
MEASUREMENT_PROTOCOL: Cytotoxicity, SRB assay, PPC-1
Format: cell-based, human
CONDITIONS: Homo sapiens, PPC-1, read-out: IC50 PPC-1
pIC50: −log10 of the molar value.

| MOLECULE | TESTED_SYSTEM | pIC50 |
| --- | --- | --- |
| C[C@](O)(CSc1ccc(NC(=O)CBr)cc1)C(=O)Nc1ccc(C#N)c(C(F)(F)F)c1 [R-CTF-T-BA-1] | PPC-1 prostate cancer cell line | 5.89 |
| C[C@](O)(CSc1ccc(NC(=O)CCl)cc1)C(=O)Nc1ccc(C#N)c(C(F)(F)F)c1 [R-CTF-T-CA-1] | PPC-1 prostate cancer cell line | 5.60 |
| CC(=O)O[C@H]1C(=O)[C@@]2(C)[C@H]([C@H](OC(=O)c3ccccc3)[C@]3(O)C[C@H](OC(=O)[C@H](O)[C@@H](NC(=O)c4ccccc4)c4ccccc4)C(C)=C1C3(C)C)[C@]1(OC(C)=O)CO[C@@H]1C[C@@H]2O [Taxol, reference compound] | PPC-1 prostate cancer cell line | 8.57 |
| C[C@](O)(COc1ccc(N=C=S)cc1)C(=O)Nc1ccc([N+](=O)[O-])c(C(F)(F)F)c1 [Compound V] | PPC-1 prostate cancer cell line | 4.24 |
